meta.source: ChEMBL document CHEMBL1154755

Assay: Metabolic stability in bile fistula rat model assessed as intact drug level recovered in bile at 1 umol/min/kg administered intraduodenally over 1 hr
Format: ADME
Conditions: in vivo, other
assay_metric: Stability

Here are 2 molecules together with their reported answers.
- structure_notation: "C[C@H](CCC(=O)O)[C@H]1CC[C@H]2[C@@H]3[C@H](O)C[C@@H]4C[C@H](O)CC[C@]4(C)[C@H]3C[C@H](O)[C@]12C"
  Stability: "12 %Idose"
- structure_notation: "C[C@H](CCC(=O)O)[C@H]1CC[C@H]2[C@@H]3[C@H](O)C[C@@H]4C[C@H](O)CC[C@]4(C)[C@H]3CC[C@]12C"
  Stability: "3 %Idose"

Recorded Stability of CC[C@H]1[C@@H](O)[C@@H]2[C@H](C[C@H](O)[C@]3(C)[C@@H]([C@H](C)C[C@H](C)C(=O)O)CC[C@@H]23)[C@@]2(C)CC[C@@H](O)C[C@@H]12 , please.
94 %Idose

Also, CC[C@H]1[C@@H](O)[C@@H]2[C@H](C[C@H](O)[C@]3(C)[C@@H]([C@H](C)C[C@@H](C)C(=O)O)CC[C@@H]23)[C@@]2(C)CC[C@@H](O)C[C@@H]12 please.
68 %Idose

====

Experiment: Metabolic stability in bile fistula rat model assessed as intact drug level recovered in bile at 1 umol/min/kg, iv over 1 hr
Assay type: ADME, organism-based
Conditions: in vivo
assay_metric: Stability (%Idose)
Numbers only; they are read as %Idose.

Here are 3 molecules together with their reported answers.
- structure_notation: "C[C@H](CCC(=O)O)[C@H]1CC[C@H]2[C@@H]3[C@H](O)C[C@@H]4C[C@H](O)CC[C@]4(C)[C@H]3C[C@H](O)[C@]12C"
  assay_metric: "Stability"
  output_unit: "%Idose"
  obs_value: 8
- structure_notation: "C[C@H](CCC(=O)O)[C@H]1CC[C@H]2[C@@H]3[C@H](O)C[C@@H]4C[C@H](O)CC[C@]4(C)[C@H]3CC[C@]12C"
  assay_metric: "Stability"
  output_unit: "%Idose"
  obs_value: 4
- structure_notation: "CC[C@H]1[C@@H](O)[C@@H]2[C@H](C[C@H](O)[C@]3(C)[C@@H]([C@H](C)C[C@@H](C)C(=O)O)CC[C@@H]23)[C@@]2(C)CC[C@@H](O)C[C@@H]12"
  assay_metric: "Stability"
  output_unit: "%Idose"
  obs_value: 65

Continue with the molecule presented below.
Recorded Stability of CC[C@H]1[C@@H](O)[C@@H]2[C@H](C[C@H](O)[C@]3(C)[C@@H]([C@H](C)C[C@H](C)C(=O)O)CC[C@@H]23)[C@@]2(C)CC[C@@H](O)C[C@@H]12 , please.
93
